The origin of these recorded values is patent US7981922B2.

- Study target: tACEdelta36NJ (Homo sapiens)
- Sequence (P12821 642-1230 limits assumed): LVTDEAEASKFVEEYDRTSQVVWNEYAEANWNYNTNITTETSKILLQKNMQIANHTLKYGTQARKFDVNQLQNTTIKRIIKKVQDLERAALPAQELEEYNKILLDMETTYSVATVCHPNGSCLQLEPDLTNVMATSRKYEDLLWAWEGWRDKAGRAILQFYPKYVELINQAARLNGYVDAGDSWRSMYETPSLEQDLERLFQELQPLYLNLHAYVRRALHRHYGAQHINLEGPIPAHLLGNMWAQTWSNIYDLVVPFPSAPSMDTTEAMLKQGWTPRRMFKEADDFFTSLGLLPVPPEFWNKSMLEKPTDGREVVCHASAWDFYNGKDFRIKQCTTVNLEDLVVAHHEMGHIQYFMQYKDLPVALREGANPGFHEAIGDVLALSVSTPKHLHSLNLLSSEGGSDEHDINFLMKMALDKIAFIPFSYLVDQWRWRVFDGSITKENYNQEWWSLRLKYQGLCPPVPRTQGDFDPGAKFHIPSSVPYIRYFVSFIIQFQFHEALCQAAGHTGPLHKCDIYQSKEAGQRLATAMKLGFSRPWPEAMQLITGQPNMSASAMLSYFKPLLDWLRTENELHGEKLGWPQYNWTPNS
Readout kind: pKi
# log scale: pKi equals minus log10 of the concentration in mol/L

Bench note: what pKi did "NCCCC[C@H](N[C@@H](CCc1ccccc1)C(=O)O)C(=O)N[C@@H](Cc1c[nH]c2ccccc12)C(=O)O" show?
4.58

---

# Ki per entry for N-domain of ACE (Homo sapiens, UniProt P12821)

Compound	Study target	Ki
NCCCC[C@H](N[C@@H](CCc1ccccc1)C(=O)O)C(=O)N[C@@H](Cc1c[nH]c2ccccc12)C(=O)O [Compound 6]	N-domain of ACE (Homo sapiens, UniProt P12821)	> 500 µM

With those in mind, consider the next compound.
# query: Ki | item NCCCC[C@H](N[C@H](CCc1ccccc1)C(=O)O)C(=O)N[C@@H](Cc1c[nH]c2ccccc12)C(=O)O [Compound 6a] | system: N-domain of ACE (Homo sapiens, UniProt P12821)
> 500 µM
